Molecular target: G2019S LRRK2 (Homo sapiens, UniProt Q5S007, G2019S)
Sequence (Q5S007 whole entry G2019S): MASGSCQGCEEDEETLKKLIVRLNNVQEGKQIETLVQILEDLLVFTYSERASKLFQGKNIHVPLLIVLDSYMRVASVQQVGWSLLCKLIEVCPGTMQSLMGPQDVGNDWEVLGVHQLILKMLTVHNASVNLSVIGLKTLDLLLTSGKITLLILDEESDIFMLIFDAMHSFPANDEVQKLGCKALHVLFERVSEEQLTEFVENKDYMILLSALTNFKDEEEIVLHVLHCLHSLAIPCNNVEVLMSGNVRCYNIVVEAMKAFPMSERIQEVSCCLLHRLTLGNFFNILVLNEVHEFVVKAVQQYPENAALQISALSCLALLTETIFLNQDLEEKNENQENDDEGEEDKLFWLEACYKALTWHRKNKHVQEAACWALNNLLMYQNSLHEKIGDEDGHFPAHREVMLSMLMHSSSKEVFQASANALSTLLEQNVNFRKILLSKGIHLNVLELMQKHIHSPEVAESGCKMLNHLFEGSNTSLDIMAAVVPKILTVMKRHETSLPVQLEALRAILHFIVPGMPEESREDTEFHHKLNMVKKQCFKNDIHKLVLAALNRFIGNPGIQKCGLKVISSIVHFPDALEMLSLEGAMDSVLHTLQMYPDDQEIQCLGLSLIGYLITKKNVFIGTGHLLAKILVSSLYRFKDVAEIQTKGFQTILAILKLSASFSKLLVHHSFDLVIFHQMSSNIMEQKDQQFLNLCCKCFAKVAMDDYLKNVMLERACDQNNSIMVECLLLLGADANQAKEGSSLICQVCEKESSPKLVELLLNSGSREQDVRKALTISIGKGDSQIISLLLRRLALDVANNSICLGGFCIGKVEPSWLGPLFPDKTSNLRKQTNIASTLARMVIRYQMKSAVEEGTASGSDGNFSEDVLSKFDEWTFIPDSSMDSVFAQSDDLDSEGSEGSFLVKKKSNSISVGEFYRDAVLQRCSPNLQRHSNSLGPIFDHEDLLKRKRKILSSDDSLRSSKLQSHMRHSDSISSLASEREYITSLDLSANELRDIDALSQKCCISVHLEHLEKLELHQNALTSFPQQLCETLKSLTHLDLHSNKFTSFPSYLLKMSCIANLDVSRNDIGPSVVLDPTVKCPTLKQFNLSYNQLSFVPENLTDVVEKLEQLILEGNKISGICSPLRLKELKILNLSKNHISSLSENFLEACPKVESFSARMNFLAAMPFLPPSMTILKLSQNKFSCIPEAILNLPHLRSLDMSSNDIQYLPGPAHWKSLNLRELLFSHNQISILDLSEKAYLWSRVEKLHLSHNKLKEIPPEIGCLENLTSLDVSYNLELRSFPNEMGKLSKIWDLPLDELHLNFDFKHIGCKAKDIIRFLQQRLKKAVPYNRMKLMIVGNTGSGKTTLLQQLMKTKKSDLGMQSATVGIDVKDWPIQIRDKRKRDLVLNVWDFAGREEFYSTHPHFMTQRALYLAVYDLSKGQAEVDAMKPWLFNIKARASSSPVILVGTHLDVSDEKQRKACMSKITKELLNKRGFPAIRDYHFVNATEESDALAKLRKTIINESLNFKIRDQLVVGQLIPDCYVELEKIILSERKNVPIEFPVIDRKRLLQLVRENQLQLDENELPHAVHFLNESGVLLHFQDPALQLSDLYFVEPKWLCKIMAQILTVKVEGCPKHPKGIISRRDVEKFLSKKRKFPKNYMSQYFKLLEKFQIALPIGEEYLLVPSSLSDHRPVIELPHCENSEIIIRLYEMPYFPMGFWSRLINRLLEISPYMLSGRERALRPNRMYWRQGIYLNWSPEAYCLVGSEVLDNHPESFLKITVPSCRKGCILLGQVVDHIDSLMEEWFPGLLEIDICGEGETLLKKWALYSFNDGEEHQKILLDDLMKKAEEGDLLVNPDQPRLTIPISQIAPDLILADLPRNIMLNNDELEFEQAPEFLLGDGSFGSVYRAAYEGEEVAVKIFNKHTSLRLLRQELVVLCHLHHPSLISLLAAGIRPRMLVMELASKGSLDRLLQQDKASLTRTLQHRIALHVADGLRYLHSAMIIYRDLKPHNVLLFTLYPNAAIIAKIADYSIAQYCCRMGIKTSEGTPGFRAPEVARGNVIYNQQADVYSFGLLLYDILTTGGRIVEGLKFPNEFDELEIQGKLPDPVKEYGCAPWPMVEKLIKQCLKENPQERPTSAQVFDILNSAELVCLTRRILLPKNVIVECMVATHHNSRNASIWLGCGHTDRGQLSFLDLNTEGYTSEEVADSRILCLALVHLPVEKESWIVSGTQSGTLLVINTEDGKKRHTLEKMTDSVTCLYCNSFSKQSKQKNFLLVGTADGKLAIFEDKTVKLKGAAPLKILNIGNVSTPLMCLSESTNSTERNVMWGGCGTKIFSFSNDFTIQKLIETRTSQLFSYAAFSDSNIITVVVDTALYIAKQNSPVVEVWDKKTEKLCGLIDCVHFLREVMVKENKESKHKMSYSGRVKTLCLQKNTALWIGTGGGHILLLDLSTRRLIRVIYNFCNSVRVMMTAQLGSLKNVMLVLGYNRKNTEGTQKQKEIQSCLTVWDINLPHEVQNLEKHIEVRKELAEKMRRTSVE
Assay: DiscoveRx KINOMEscan binding constant (Kd)
Set-up: purchased DiscoveRx (KINOMEscan service); host or cells: E. coli BL21-derived host (T7 phage) or HEK-293
Settings: numeric value
pKd: −log10 of the molar value.
reportedMetric: pKd

compound	pKd
CC(C)Oc1cc2c(cc1F)NC(=O)/C2=C\c1cnc(N2CCOCC2)[nH]1 [Compound 37]	7.62
CCN1CCN(c2ncc(/C=C3\C(=O)Nc4cc(F)c(OC(C)C)cc43)[nH]2)CC1 [Compound 44]	7.39
CC(C)Oc1ccc2c(n1)/C(=C/c1cnc(C3CCOCC3)[nH]1)C(=O)N2 [Compound 46]	6.60

[P] CC(C)Oc1ccc2c(c1)/C(=C/c1cnc(N3CCOCC3)[nH]1)C(=O)N2 [Compound 27]
[Q] CC(C)Oc1cc2c(cn1)NC(=O)/C2=C\c1cnc(C2CCOCC2)[nH]1 [Compound 45]
[R] CCc1ccc2c(c1)/C(=C/c1cnc(C3CCOCC3)[nH]1)C(=O)N2 [Compound 29]
[S] CC(C)Cc1ncc(/C=C2\C(=O)Nc3ccc(OC(C)C)cc32)[nH]1 [Compound 22]
[T] COc1ccc2c(c1)/C(=C/c1cnc(C3CCOCC3)[nH]1)C(=O)N2 [Compound 18]
List from greatest to least pKd. Order the labels as requested and give them as your answer. P, S, R, T, Q

====

Target: CHEK1 (Homo sapiens, UniProt O14757)
Sequence (O14757 1-476): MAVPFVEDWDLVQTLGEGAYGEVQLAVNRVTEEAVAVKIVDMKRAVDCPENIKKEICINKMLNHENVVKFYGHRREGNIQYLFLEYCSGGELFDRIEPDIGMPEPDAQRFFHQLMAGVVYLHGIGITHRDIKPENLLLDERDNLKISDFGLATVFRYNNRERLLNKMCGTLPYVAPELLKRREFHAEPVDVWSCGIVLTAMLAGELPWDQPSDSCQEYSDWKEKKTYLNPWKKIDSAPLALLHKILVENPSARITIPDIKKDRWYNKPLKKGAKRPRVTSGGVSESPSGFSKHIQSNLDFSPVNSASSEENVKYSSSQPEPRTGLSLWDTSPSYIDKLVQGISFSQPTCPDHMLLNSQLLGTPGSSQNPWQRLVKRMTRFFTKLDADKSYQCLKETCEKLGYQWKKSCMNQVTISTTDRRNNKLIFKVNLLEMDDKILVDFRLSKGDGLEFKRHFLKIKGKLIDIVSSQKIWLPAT
Test: Kinase selectivity panel: CHEK1
Type: biochemical
reportedMetric: IC50

A selection of reference data follows.
smilesStr	IC50
COc1ccc2c(c1)/C(=C/c1cnc(C(C)C)[nH]1)C(=O)N2	> 10 µM
Cc1ncc(/C=C2\C(=O)Nc3ccc(OC(C)C)cc32)[nH]1	0.999 µM
COc1ccc2c(c1)/C(=C/c1cnc(C3CCOCC3)[nH]1)C(=O)N2	> 10 µM

Which IC50 is listed for COc1ccc2c(c1)/C(=C/c1cnc(C(C)(C)C)[nH]1)C(=O)N2 ? > 10 µM

====

Molecular target: G2019S LRRK2 (Homo sapiens, UniProt Q5S007, G2019S)
Assay: DiscoveRx KINOMEscan binding constant (Kd)
Set-up: purchased DiscoveRx (KINOMEscan service); host or cells: E. coli BL21-derived host (T7 phage) or HEK-293
Conditions: class symbol
Measured Kd, listed per entry for reference.

smilesStr	assayTarget	reportedMetric	assayResult
CCc1nnc(/C=C2\C(=O)Nc3ccc(OC)cc32)[nH]1	G2019S LRRK2 (Homo sapiens, UniProt Q5S007, G2019S)	Kd	≥ 1 µM

// moving on: another record for Kd
Which Kd is listed for CC(C)Oc1ccc2c(c1F)/C(=C/c1cnc(N3CCOCC3)[nH]1)C(=O)N2 ? ≥ 1 µM
